Biological target: human GPR119 (Homo sapiens)
Sequence (Q8TDV5 1-335): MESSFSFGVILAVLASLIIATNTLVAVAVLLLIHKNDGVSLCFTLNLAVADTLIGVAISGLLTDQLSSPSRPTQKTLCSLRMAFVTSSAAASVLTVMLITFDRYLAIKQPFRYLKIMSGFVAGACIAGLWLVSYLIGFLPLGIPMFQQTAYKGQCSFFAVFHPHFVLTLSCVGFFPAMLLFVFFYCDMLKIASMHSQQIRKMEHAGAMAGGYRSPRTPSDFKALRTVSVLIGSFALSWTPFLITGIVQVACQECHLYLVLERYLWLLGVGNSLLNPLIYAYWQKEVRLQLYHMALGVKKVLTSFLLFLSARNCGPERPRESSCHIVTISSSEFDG
Assay: Functional cellular assay measuring GPR119-mediated cAMP release (HTRF) in HEK-293 cells stably expressing recombinant GPR119
Details: cAMP response, cell line expressing human GPR119 (HEK-293), 30 minutes at room temperature
Protocol: Functional Cellular Assays Measuring GPR119-Mediated cAMP Release Compounds of the invention, which are agonists of GPR119, were characterized by functional assays measuring the cAMP response of HEK-293 cell lines stably expressing recombinant GPR119 from man, mouse or rat, or by using a hamster cell line HIT-T15 expressing GPR119 endogenously. The cAMP content was determined using a kit based on homogenous time-resolved fluorescence (HTRF) from Cisbio Corp. (cat. no. 62AM4PEC). […]
pEC50: −log10 of the molar value.
compounds and their reported pEC50
assayReadout: pEC50

[
  {
    "inputSmiles": "COC(=O)Cc1nc2ccc(N3CC[C@@H](Oc4ccc(OCC5CC5)nc4)C3=O)cn2n1",
    "valueObserved": 5.80
  },
  {
    "inputSmiles": "CN(C)C(=O)Cn1cc2cc(N3CC[C@@H](Oc4ccc(OCC(F)(F)F)nc4)C3=O)ccc2n1",
    "valueObserved": 6.99
  },
  {
    "inputSmiles": "CN(C)C(=O)Cn1nc2cc(N3CC[C@@H](Oc4ccc(OCC5CC5)nc4)C3=O)cc(F)c2n1",
    "valueObserved": 6.74
  },
  {
    "inputSmiles": "CS(=O)(=O)Cn1nc2ccc(N3CC[C@@H](Oc4ccc(OCC(F)(F)F)nc4)C3=O)cn2c1=O",
    "valueObserved": 6.95
  },
  {
    "inputSmiles": "CS(=O)(=O)Cn1nc2ccc(N3CC[C@@H](Oc4ccc(C(=O)C5CC5)cc4)C3=O)cn2c1=O",
    "valueObserved": 6.71
  },
  {
    "inputSmiles": "O=C(O)Cn1nc2ccc(N3CC[C@@H](Oc4ccc(OCC5CC5)nc4)C3=O)cc2n1",
    "valueObserved": 5.68
  },
  {
    "inputSmiles": "NC(=O)Cn1nc2ccc(N3CC[C@@H](Oc4ccc(OCC5CC5)nc4)C3=O)cc2n1",
    "valueObserved": 6.71
  },
  {
    "inputSmiles": "Cn1nc2ccc(N3CC[C@@H](Oc4ccc(OCC5CC5)nc4)C3=O)cn2c1=O",
    "valueObserved": 5.38
  }
]

* * *

target: human GPR119 (Homo sapiens); assay: Functional cellular assay measuring GPR119-mediated cAMP release (HTRF) in HEK-293 cells stably expressing recombinant GPR119; details: cAMP response, cell line expressing human GPR119 (HEK-293), 30 minutes at room temperature
Listing of recorded EC50 by entry.

[
  {
    "inputSmiles": "O=C1[C@H](Oc2ccc(OCC3CC3)nc2)CCN1c1cc(F)c2n[nH]c(=O)n2c1",
    "EC50 (nM)": 249
  },
  {
    "inputSmiles": "CN(C)C(=O)Cn1nc2c(F)cc(N3CC[C@@H](Oc4ccc(OCC5CC5)nc4)C3=O)cn2c1=O",
    "EC50 (nM)": 126
  },
  {
    "inputSmiles": "CN(C)C(=O)Cn1nc2c(F)cc(N3CC[C@@H](Oc4ccc(C(=O)CC5CC5)cc4)C3=O)cn2c1=O",
    "EC50 (nM)": 179
  },
  {
    "inputSmiles": "O=C(Cn1nc2ccc(N3CC[C@@H](Oc4ccc(OCC5CC5)nc4)C3=O)cc2n1)NCCO",
    "EC50 (nM)": 343
  }
]

* * *

target: human GPR119 (Homo sapiens); assay: Functional cellular assay measuring GPR119-mediated cAMP release (HTRF) in HEK-293 cells stably expressing recombinant GPR119; settings: cAMP response, cell line expressing human GPR119 (HEK-293), 30 minutes at room temperature

[
  {
    "compound": "CN(C)C(=O)Cn1nc2ccc(N3CC[C@@H](Oc4ccc(OCC5CC5)nc4)C3=O)cc2n1 [Example 2-03]",
    "inequalityOperator": "=",
    "EC50 / nM": 127
  },
  {
    "compound": "O=C(Cn1nc2c(F)cc(N3CC[C@@H](Oc4ccc(OCC5CC5)nc4)C3=O)cn2c1=O)NC1CC1 [Example 2-02]",
    "inequalityOperator": "=",
    "EC50 / nM": 123
  },
  {
    "compound": "O=C(O)Cc1nc2ccc(N3CC[C@@H](Oc4ccc(OCC5CC5)nc4)C3=O)cn2n1 [Example 1-06]",
    "inequalityOperator": "=",
    "EC50 / nM": 17300
  },
  {
    "compound": "Cn1nc2c(F)cc(N3CC[C@@H](Oc4ccc(OCC5CC5)nc4)C3=O)cn2c1=O [Example 1-27]",
    "inequalityOperator": "=",
    "EC50 / nM": 1870
  },
  {
    "compound": "CS(=O)(=O)Cn1nc2ccc(N3CC[C@@H](Oc4ccc(Oc5ccc(F)cc5)nc4)C3=O)cn2c1=O [Example 1-31]",
    "inequalityOperator": "=",
    "EC50 / nM": 365
  },
  {
    "compound": "O=C1[C@H](Oc2ccc(OCC3CC3)nc2)CCN1c1ccc2nncn2c1 [Example 1-05]",
    "inequalityOperator": "=",
    "EC50 / nM": 7990
  },
  {
    "compound": "O=C1[C@H](Oc2ccc(OCC3CC3)nc2)CCN1c1ccc2nccn2c1 [Example 1-03]",
    "inequalityOperator": "=",
    "EC50 / nM": 7620
  },
  {
    "compound": "COC(=O)Cn1c(C)c2ccc(N3CC[C@@H](Oc4ccc(OCC5CC5)nc4)C3=O)cn2c1=O [Example 1-04]",
    "inequalityOperator": "=",
    "EC50 / nM": 155
  },
  {
    "compound": "O=C(O)Cn1cc2ccc(N3CC[C@@H](Oc4ccc(OCC5CC5)nc4)C3=O)cc2n1 [Example 1-16]",
    "inequalityOperator": "=",
    "EC50 / nM": 12000
  },
  {
    "compound": "O=C1[C@H](Oc2ccc(OCC3CC3)nc2)CCN1c1ccc2nc(C3CC3)nn2c1 [Example 1-01]",
    "inequalityOperator": "=",
    "EC50 / nM": 11300
  },
  {
    "compound": "O=C(O)Cc1cn2cc(N3CC[C@@H](Oc4ccc(OCC5CC5)nc4)C3=O)ccc2n1 [Example 1-19]",
    "inequalityOperator": ">",
    "EC50 / nM": 100000
  },
  {
    "compound": "COC(=O)Cn1nc2ccc(N3CC[C@@H](Oc4ccc(OCC5CC5)nc4)C3=O)cn2c1=O [Example 1-26]",
    "inequalityOperator": "=",
    "EC50 / nM": 113
  },
  {
    "compound": "Cn1nc2ccc(N3CC[C@@H](Oc4ccc(OCC5CC5)nc4)C3=O)cc2n1 [Example 1-21]",
    "inequalityOperator": "=",
    "EC50 / nM": 2050
  },
  {
    "compound": "COC(=O)Cn1nc2ccc(N3CC[C@@H](Oc4ccc(OCC5CC5)nc4)C3=O)cc2n1 [Example 1-18]",
    "inequalityOperator": "=",
    "EC50 / nM": 34
  },
  {
    "compound": "COC(=O)c1nc2ccc(N3CC[C@@H](Oc4ccc(OCC5CC5)nc4)C3=O)cn2n1 [Example 1-08]",
    "inequalityOperator": "=",
    "EC50 / nM": 5540
  },
  {
    "compound": "CN(C)C(=O)Cn1nc2ccc(N3CC[C@@H](Oc4ccc(Oc5ccc(F)cc5)nc4)C3=O)cn2c1=O [Example 1-11]",
    "inequalityOperator": "=",
    "EC50 / nM": 206
  },
  {
    "compound": "COC(=O)Cc1cn2cc(N3CC[C@@H](Oc4ccc(OCC5CC5)nc4)C3=O)ccc2n1 [Example 1-20]",
    "inequalityOperator": "=",
    "EC50 / nM": 9920
  },
  {
    "compound": "O=C(O)Cn1nc2ccc(N3CC[C@@H](Oc4ccc(OCC5CC5)nc4)C3=O)cn2c1=O [Example 1-24]",
    "inequalityOperator": "=",
    "EC50 / nM": 6170
  },
  {
    "compound": "O=C1[C@H](Oc2ccc(OCC3CC3)nc2)CCN1c1ccc2n[nH]c(=O)n2c1 [Example 1-14]",
    "inequalityOperator": "=",
    "EC50 / nM": 701
  },
  {
    "compound": "O=C1[C@H](Oc2ccc(Oc3ccc(F)cc3)nc2)CCN1c1cc(F)c2n[nH]c(=O)n2c1 [Example 1-10]",
    "inequalityOperator": "=",
    "EC50 / nM": 658
  },
  {
    "compound": "COC(=O)Cn1cc2ccc(N3CC[C@@H](Oc4ccc(OCC5CC5)nc4)C3=O)cc2n1 [Example 1-15]",
    "inequalityOperator": "=",
    "EC50 / nM": 924
  },
  {
    "compound": "CN(C)C(=O)Cn1nc2ccc(N3CC[C@@H](Oc4ccc(C(=O)CC5CC5)cc4)C3=O)cn2c1=O [Example 1-12]",
    "inequalityOperator": "=",
    "EC50 / nM": 269
  },
  {
    "compound": "CN(C)C(=O)Cn1nc2ccc(N3CC[C@@H](Oc4ccc(OCC5CC5)nc4)C3=O)cn2c1=O [Example 1-09]",
    "inequalityOperator": "=",
    "EC50 / nM": 191
  },
  {
    "compound": "COC(=O)Cn1nc2c(F)cc(N3CC[C@@H](Oc4ccc(OCC5CC5)nc4)C3=O)cn2c1=O [Example 1-28]",
    "inequalityOperator": "=",
    "EC50 / nM": 70
  },
  {
    "compound": "CN(C)C(=O)Cn1nc2ccc(N3CC[C@@H](Oc4ccc(OCC(F)(F)F)nc4)C3=O)cn2c1=O [Example 1-30]",
    "inequalityOperator": "=",
    "EC50 / nM": 203
  },
  {
    "compound": "O=C1[C@H](Oc2ccc(OCC3CC3)nc2)CCN1c1ccc2ncnn2c1 [Example 1-02]",
    "inequalityOperator": "=",
    "EC50 / nM": 851
  }
]
